Test system: Escherichia coli TOP10
Assay: shrunken log2 fold change of peptide-encoding DNA abundance (4.5 h post-induction vs induction); higher = less antimicrobial activity (less host growth inhibition)
Settings: time post-induction: 4.5 h; library: site-saturation at positions 5, 18, 19, 20
READOUT NAME: shrunken log2 fold change
Just the number, please, no unit after it.

# shrunken log2 fold change lookup, item RRIRVRPPRLPRPRPRPFCGPRP
-0.0559

RRIRRRPPRLPRPRPRPWIFPRP , same question.
0.0818

And then RRIRWRPPRLPRPRPRPVWEPRP , what is it?
0.912

Thanks! And RRIRERPPRLPRPRPRPMMNPRP ?
-0.122

Input RRIRCRPPRLPRPRPRPRTWPRP
0.326

Record: RRIRGRPPRLPRPRPRPKTKPRP
0.0509

And the next one, RRIRVRPPRLPRPRPRPARGPRP ?
0.681

What do we get for RRIRTRPPRLPRPRPRPCWRPRP ?
0.156

Can you handle RRIRRRPPRLPRPRPRPPEAPRP next?
0.493

Same lookup for RRIRNRPPRLPRPRPRPWSRPRP , please.
0.14

Would you mind doing RRIRDRPPRLPRPRPRPRLNPRP as well?
-0.0317

// same read-out, input: RRIRDRPPRLPRPRPRPMSTPRP
0.0569

Do the same for RRIRERPPRLPRPRPRPYTPPRP please
-1

Likewise for RRIRTRPPRLPRPRPRPDNHPRP ?
-1.07

Thanks! And RRIRTRPPRLPRPRPRPKWMPRP ?
0.00414

Again, but for RRIRERPPRLPRPRPRPVKDPRP
-0.189

Same read-out for RRIRNRPPRLPRPRPRPNHAPRP ?
-0.0192

Also, RRIRMRPPRLPRPRPRPLAIPRP please.
0.173

Okay, and RRIRTRPPRLPRPRPRPFRAPRP ?
-0.597

Try RRIRVRPPRLPRPRPRPVDPPRP next.
0.22

// next record RRIRHRPPRLPRPRPRPTKNPRP
-0.312

Lookup RRIRMRPPRLPRPRPRPTFAPRP
0.573

Please give the result for RRIRSRPPRLPRPRPRPVGQPRP too.
0.236

RRIRDRPPRLPRPRPRPVWVPRP , same question.
-0.203

Can you check RRIRLRPPRLPRPRPRPLEGPRP next?
0.765

Further, for RRIRMRPPRLPRPRPRPYEKPRP ?
-0.111

Query RRIRTRPPRLPRPRPRPYWQPRP next
-0.435

* * *

System: Escherichia coli TOP10
Assay: shrunken log2 fold change of peptide-encoding DNA abundance (4.5 h post-induction vs induction); higher = less antimicrobial activity (less host growth inhibition)
Conditions: time post-induction: 4.5 h; library: site-saturation at positions 5, 18, 19, 20
I'd appreciate it if you could supply shrunken log2 fold change values for the items below.
Would you mind answering with just the numeric figure?

Can you look up shrunken log2 fold change on Escherichia coli TOP10 for RRIRNRPPRLPRPRPRPFMVPRP ?
-0.646

Field entry: RRIRWRPPRLPRPRPRPNVRPRP
0.057

What do you have for RRIRVRPPRLPRPRPRPQNCPRP ?
-0.205

Next entry: RRIRKRPPRLPRPRPRPVQMPRP
0.241

Another: RRIRCRPPRLPRPRPRPESRPRP
0.276

Item: RRIRHRPPRLPRPRPRPWKVPRP
-0.0338

Check RRIRNRPPRLPRPRPRPYWPPRP too.
-0.199

Next sequence: RRIRGRPPRLPRPRPRPQDVPRP
0.0766

Also RRIRDRPPRLPRPRPRPPYFPRP ?
-0.0365

Next sequence: RRIRDRPPRLPRPRPRPMEFPRP
-0.0018

Then RRIRSRPPRLPRPRPRPTVPPRP ?
0.0372

Then what about the sequence RRIRQRPPRLPRPRPRPAPEPRP ?
0.228

Please give the result for RRIRPRPPRLPRPRPRPFSNPRP too.
-0.218

Another sequence: RRIRSRPPRLPRPRPRPRLMPRP
0.198

// same read-out, input: RRIRGRPPRLPRPRPRPKAVPRP
0.89

Please answer likewise for RRIRARPPRLPRPRPRPSWLPRP
0.0254

Continue with RRIRIRPPRLPRPRPRPMGSPRP
-0.0432

Also RRIRKRPPRLPRPRPRPCMSPRP ?
-0.0865

Next record, please: RRIRSRPPRLPRPRPRPEMVPRP
0.0797

Also RRIRKRPPRLPRPRPRPMAAPRP , if possible.
0.751

Lookup RRIRDRPPRLPRPRPRPFQIPRP
0.0155

And the next one, RRIRKRPPRLPRPRPRPMYTPRP ?
-0.0983

Try the sequence RRIRARPPRLPRPRPRPATIPRP
0.496

Now try RRIRHRPPRLPRPRPRPICRPRP .
0.0125

* * *

Test system: Escherichia coli TOP10
Experiment: shrunken log2 fold change of peptide-encoding DNA abundance (4.5 h post-induction vs induction); higher = less antimicrobial activity (less host growth inhibition)
Details: time post-induction: 4.5 h; library: site-saturation at positions 5, 18, 19, 20
READOUT NAME: shrunken log2 fold change

Observed shrunken log2 fold change on Escherichia coli TOP10 for RRIRARPPRLPRPRPRPHEQPRP , please.
0.257

Cool, now RRIRSRPPRLPRPRPRPTMQPRP
-0.106

Also RRIRMRPPRLPRPRPRPFQIPRP , if possible.
-0.0803

Also RRIRKRPPRLPRPRPRPHTKPRP ?
-0.0306

One more sequence: RRIRSRPPRLPRPRPRPMCDPRP
-0.147

Same question for RRIRHRPPRLPRPRPRPSCGPRP please.
-0.304

Now the same for RRIRERPPRLPRPRPRPPGVPRP
0.232

And then RRIRDRPPRLPRPRPRPYNEPRP , what is it?
-0.0252

* * *

System: Escherichia coli TOP10
Experiment: shrunken log2 fold change of peptide-encoding DNA abundance (4.5 h post-induction vs induction); higher = less antimicrobial activity (less host growth inhibition)
Conditions: time post-induction: 4.5 h; library: site-saturation at positions 5, 18, 19, 20
READOUT NAME: shrunken log2 fold change
Output spec: single numeric token, no unit.

Would you kindly share the measured shrunken log2 fold change for RRIRFRPPRLPRPRPRPQMIPRP ?
-0.484

Request: RRIRGRPPRLPRPRPRPRHDPRP
0.417

For RRIRQRPPRLPRPRPRPAMLPRP then?
0.0266

Next up: RRIRSRPPRLPRPRPRPSHDPRP
-0.308

Next sequence: RRIRNRPPRLPRPRPRPALGPRP
-0.361

Same question, RRIRIRPPRLPRPRPRPPYDPRP this time
-0.814

* * *

Assign shrunken log2 fold change to each entry below.
System: Escherichia coli TOP10
Assay: shrunken log2 fold change of peptide-encoding DNA abundance (4.5 h post-induction vs induction); higher = less antimicrobial activity (less host growth inhibition)
Details: time post-induction: 4.5 h; library: site-saturation at positions 5, 18, 19, 20
Answer with the value's number alone.

May I ask what shrunken log2 fold change has been recorded for RRIRFRPPRLPRPRPRPHWCPRP ?
-0.262

Moving on to RRIRPRPPRLPRPRPRPKFAPRP
0.409

Check RRIRDRPPRLPRPRPRPVVMPRP too.
0.194

Cool, now RRIRARPPRLPRPRPRPVPYPRP
-0.0718

Would you mind doing RRIRGRPPRLPRPRPRPEVEPRP as well?
2.03

* * *

Tested on: Escherichia coli TOP10
Experiment: shrunken log2 fold change of peptide-encoding DNA abundance (4.5 h post-induction vs induction); higher = less antimicrobial activity (less host growth inhibition)
Settings: time post-induction: 4.5 h; library: site-saturation at positions 5, 18, 19, 20
Give shrunken log2 fold change for every item shown.

Record request: shrunken log2 fold change value, item RRIRHRPPRLPRPRPRPSVAPRP
-0.156

// same read-out, input: RRIRPRPPRLPRPRPRPWSSPRP
-0.977

Check RRIRGRPPRLPRPRPRPVMRPRP too.
0.749

Likewise for RRIRCRPPRLPRPRPRPFMDPRP ?
-0.361

Next: RRIRFRPPRLPRPRPRPIRVPRP
0.0245

Please give the result for RRIRFRPPRLPRPRPRPKVGPRP too.
-0.01

* * *

Tested on: Escherichia coli TOP10;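 note: peptides expressed intracellularly from a pBAD plasmid library in pooled LB shake-flask culture, induced with 0.3% L-arabinose, DNA abundance read by NGS, three biological replicates, DESeq2 with apeglm shrinkage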
Test: shrunken log2 fold change of peptide-encoding DNA abundance (4.5 h post-induction vs induction); higher = less antimicrobial activity (less host growth inhibition)
Settings: time post-induction: 4.5 h; library: site-saturation at positions 5, 18, 19, 20
Cut-off -0.003 on shrunken log2 fold change, inclusive. At or above means Fulfilled; below means Not fulfilled.

Hi team, for RRIRRRPPRLPRPRPRPERMPRP , is the recorded shrunken log2 fold change at or above -0.003?
Fulfilled

What do you have for RRIRERPPRLPRPRPRPVYHPRP ?
Not fulfilled

Repeat for the following sequence: RRIRGRPPRLPRPRPRPHGWPRP
Fulfilled

Next entry: RRIRCRPPRLPRPRPRPAGMPRP
Fulfilled

Quick one: RRIRGRPPRLPRPRPRPLYCPRP
Not fulfilled

What would you report for RRIRRRPPRLPRPRPRPSVDPRP ?
Fulfilled

Cool, now RRIRCRPPRLPRPRPRPFDNPRP
Not fulfilled

Would you mind doing RRIRWRPPRLPRPRPRPYGFPRP as well?
Not fulfilled

Same again, this time with RRIRYRPPRLPRPRPRPNNWPRP
Not fulfilled

Let us now turn to RRIRRRPPRLPRPRPRPKGTPRP
Fulfilled

Consider next the sequence RRIRARPPRLPRPRPRPHIHPRP in the same way.
Not fulfilled

Can you check RRIRDRPPRLPRPRPRPITWPRP next?
Fulfilled

Now consider RRIRHRPPRLPRPRPRPTWMPRP .
Fulfilled

Values compiled from the supplement of paper PMC9112550.
